Target: T1, human BCMA with a His tag (ACROBiosystems, Catalog No.: BCA-H522y) (human)
T1 construct: Bought His-tagged recombinant protein; also called huBCMA-His; Recombinant human BCMA
T1 chain: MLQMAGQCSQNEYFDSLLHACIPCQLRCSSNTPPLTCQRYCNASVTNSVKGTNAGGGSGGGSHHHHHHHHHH
Experiment: SPR, Biacore T200
MEASURED_PARAMETER: kon (M⁻¹ s⁻¹)
Write it as a number; the unit M⁻¹ s⁻¹ goes unstated.

Problem: Name the reported kon value associated with the binder SCT-Aa03(m/m) (antibody, V domains shown, Full IgG format: mouse IgG1 heavy chain constant region, mouse kappa light chain constant region) VH: EVKLLQSGGGLVQPGGSLKLSCAASGIDFSRYWMSWVRRAPGKGLEWIGEINPDSSTINYAPSLKDKFIISRDNAKNTLYLQMSKVRSEDTALYYCASFYYDYDHAMDYWGQGTSVTVSS VL: DIVMTQSQKFMSTSVGDRFSVTCKASQNVGTNVAWYQQKPGQSPKALIYSASYRFSGVPDRFTGSGSGTDFTLTISNVQSEDLAEYFCQQYNSYPFTFGSGTKLEIK
Result: 224000

Problem: Name the reported kon value associated with the binder SCT-Aa09(m/m) (antibody, V domains shown, Full IgG format: mouse IgG1 heavy chain constant region, mouse kappa light chain constant region) VH: QVQLQQSDAELVKPGASVKISCKVSGYTFTDHTIHWMKQRPEQGLEWIGYFYPRDDNTKYNEKFKGKATLTADRSSSTAYMQLNSLTSEDSAVYFCARWDYEGFDYWGQGTTLTVSS VL: DIVMTQSPATLSVTPGDRVSLSCRASQSIRDYLHWYQQKSHESPRLLIKYASQSISGIPSRFSGSGSGSDFTLSINSVEPEDVGVYYCQNGHSFPPTFGSGTKLEIK
Result: 1.66e+06

Problem: Name the reported kon value associated with the binder SCT-Aa17(h/h) (antibody, V domains shown, Full IgG format, chimeric: human IgG1 heavy chain constant region, human kappa light chain constant region) VH: EVQLQQSGPELVKPGASVKMSCKASGYTFTSYVMDWVKQKPGQGLEWIGYINPYNDGTKYNEKFKGKATLTSDKSSSTVYMELSSLTSEDSAVYHCARSDYDYGYAMDYWGQGTSVTVSS VL: DIQMTQSPASLSLSVGETVTITCRASENIYSNLAWYQQKQGNSPQLLVYSATHLADGVPSRFSGSGSGTQYSLKINSLQSEDFGCYYCQHFWGPPWTFGGGTKLEIK
Result: 5.39e+06
